Test: Body weight of rats in method B
Design: species or system male Wistar strain rats
Conditions: rat, in vivo
Task for the reader: assign each of the following compounds its reported Body weight during feed period, 15th day.
# unit: g | format: bare number

Prompt: Using known records, supply Body weight during feed period, 15th day for COc1cc(C(=O)OC2CCC34CC35CCC3(C)C(C(C)CCC=C(C)C)CCC3(C)C5CCC4C2(C)C)ccc1N (stereo not drawn)
Completion: 191

Prompt: Using known records, supply Body weight during feed period, 15th day for C=C(CCC(C)C1CCC2(C)C3CCC4C(C)(C)C(OC(=O)C(C)=Cc5cc(N)ccc5OCCC)CCC45CC35CCC12C)C(C)C (stereo not drawn)
Completion: 188

Prompt: Using known records, supply Body weight during feed period, 15th day for COc1cc(C=CC(=O)OC2CCC34CC35CCC3(C)C(C(C)CCC=C(C)C)CCC3(C)C5CCC4C2(C)C)ccc1N (stereo not drawn)
Completion: 187

Prompt: Using known records, supply Body weight during feed period, 15th day for CCOc1cc(C=C(C)C(=O)OC2CCC34CC35CCC3(C)C(C(C)CCC(C)=C(C)C)CCC3(C)C5CCC4C2(C)C)ccc1O (stereo not drawn)
Completion: 194

Prompt: Using known records, supply Body weight during feed period, 15th day for COc1cc(C=C(C)C(=O)OC2CCC34CC35CCC3(C)C(C(C)CCC=C(C)C)CCC3(C)C5CCC4C2(C)C)ccc1N (stereo not drawn)
Completion: 188

Prompt: Using known records, supply Body weight during feed period, 15th day for C=C(CCC(C)C1CCC2(C)C3CCC4C(C)(C)C(OC(=O)C(C)=Cc5ccc(N)c(OC)c5)CCC45CC35CCC12C)C(C)C (stereo not drawn)
Completion: 188

---

Test: Body weight of rats in method B
Set-up: species or system male Wistar strain rats
Details: rat, in vivo
Task for the reader: assign each of the following compounds its reported Body weight during feed period, 1st day.
# unit: g | format: bare number

Prompt: Using known records, supply Body weight during feed period, 1st day for CCC(=Cc1ccc(O)c(OC)c1)C(=O)OC1CCC23CC24CCC2(C)C(C(C)CCC=C(C)C)CCC2(C)C4CCC3C1(C)C (stereo not shown) [Example 120]
Completion: 105

Prompt: Using known records, supply Body weight during feed period, 1st day for CCOc1ccc(N)cc1C=CC(=O)OC1CCC23CC24CCC2(C)C(C(C)CCC=C(C)C)CCC2(C)C4CCC3C1(C)C (stereo not shown) [Example 183]
Completion: 105

Prompt: Using known records, supply Body weight during feed period, 1st day for COc1cc(C=C(C)C(=O)OC2CCC34CC35CCC3(C)C(C(C)CCC=C(C)C)CCC3(C)C5CCC4C2(C)C)ccc1N (stereo not shown) [Example 189]
Completion: 104

Prompt: Using known records, supply Body weight during feed period, 1st day for COc1cc(C=CC(=O)OC2CCC34CC35CCC3(C)C(C(C)CCC=C(C)C)CCC3(C)C5CCC4C2(C)C)ccc1N (stereo not shown) [Example 177]
Completion: 104

Prompt: Using known records, supply Body weight during feed period, 1st day for CC(C)=CCCC(C)C1CCC2(C)C3CCC4C(C)(C)C(OC(=O)C(C)=Cc5ccc(N)cc5)CCC45CC35CCC12C (stereo not shown) [Example 205]
Completion: 105

Prompt: Using known records, supply Body weight during feed period, 1st day for C=C(CCC(C)C1CCC2(C)C3CCC4C(C)(C)C(OC(=O)C(C)=Cc5cc(N)ccc5OCCC)CCC45CC35CCC12C)C(C)C (stereo not shown) [Example 197]
Completion: 104

Prompt: Using known records, supply Body weight during feed period, 1st day for COc1cc(C(=O)OC2CCC34CC35CCC3(C)C(C(C)CCC=C(C)C)CCC3(C)C5CCC4C2(C)C)ccc1N (stereo not shown) [Example 167]
Completion: 105
